Reported APOE RNA (% control) Cortex by item:
Tested on: human APOE RNA
Experiment: Duration of action study in APOE C57BL/6NTac-Apoeem7250 knock-in mice (Example 16)
Assay type: in vivo
Conditions: cortex; 300 μg ICV; 14 days post-dose
Strand notation (5' to 3'): a small letter for the sugar, then the base; units joined by * are phosphorothioate-linked, units joined directly phosphodiester-linked; [ ] holds rarer units or linkages, { } end groups; capitals alone tell only the bases. [ms] = mesyl phosphoramidate linkage; e = 2'-O-(2-methoxyethyl) (MOE); k = constrained ethyl (cEt); [5mC] = 5-methylcytosine; d = 2'-deoxy (DNA)
Dear colleague, please return just the value in % control, with no unit written.

{"Substance": "Aes^mCeoTeoTesGesGksTdsGdzAdzAdzTds^mCdsTdsTdsTdsAdzTksTksAesAe (eA*e[5mC]eTeT*eG*kG*dT*dG[ms]dA[ms]dA[ms]dT*d[5mC]*dT*dT*dT*dA[ms]kT*kT*eA*eA) [Compound No. 1757576]", "Units Text": "% control", "Reported Result": 32}

Task: Requested read-out: APOE RNA (% control) Cortex. Entry: TezTeoGeoGksTdsGdzAdzAdzTds^mCdsTdsTdsTdsAdzTksTksAesAesAes^mCe (antisense eT[ms]eTeGkG*dT*dG[ms]dA[ms]dA[ms]dT*d[5mC]*dT*dT*dT*dA[ms]kT*kT*eA*eA*eA*e[5mC]) [Compound No. 1809814]
Result: 57

----------
Test system: human APOE RNA
Assay: Dose-dependent inhibition of human APOE RNA in HepG2 cells, electroporation, 50,000 cells per well, RT-PCR normalized to GAPDH (Example 4, Tables 8-10)
Format: cell-based
Conditions: HepG2 cells, electroporation, 24-hour treatment, 20,000 nM, Table 8
Strand notation (5' to 3'): a small letter for the sugar, then the base; units joined by * are phosphorothioate-linked, units joined directly phosphodiester-linked; [ ] holds rarer units or linkages, { } end groups; capitals alone tell only the bases. [ms] = mesyl phosphoramidate linkage; k = constrained ethyl (cEt); [5mC] = 5-methylcytosine; d = 2'-deoxy (DNA)
Criterion: APOE RNA (% UTC) 20,000 nM meeting or surpassing 6 % UTC. Met: met. Not met: not met.

Recorded results for 3 substances are shown here.
{"Substance": "1785601: modified oligonucleotide complementary to human APOE RNA (k[5mC]*kT*kT*dG[ms]dG[ms]dT[ms]dG*dA[ms]dA[ms]dT*d[5mC]*dT*dT*dT*dA[ms]dT*kT*kA*dA[ms]kA; antisense) [compound 1785601]", "Tested On": "human APOE RNA", "Assigned Label": "met"}
{"Substance": "1785604: modified oligonucleotide complementary to human APOE RNA (k[5mC]*dT[ms]dT[ms]kG*dG[ms]kT*dG[ms]dA[ms]dA*dT*d[5mC]*dT*dT*dT*dA*dT*kT*kA*dA[ms]kA; antisense) [compound 1785604]", "Tested On": "human APOE RNA", "Assigned Label": "met"}
{"Substance": "1785617: modified oligonucleotide complementary to human APOE RNA (k[5mC]*dT[ms]dT[ms]kG*dG[ms]kT*dG[ms]dA[ms]dA[ms]dT[ms]d[5mC]*dT*dT*dT*dA*dT*kT*kA*dA[ms]kA; antisense) [compound 1785617]", "Tested On": "human APOE RNA", "Assigned Label": "met"}

Task: Say whether ^mCksTksTksGdzGdzTdzGdzAdzAdzTds^mCdsTdsTdsTdsAdsTdsTksAksAdzAk (antisense k[5mC]*kT*kT*dG[ms]dG[ms]dT[ms]dG[ms]dA[ms]dA[ms]dT*d[5mC]*dT*dT*dT*dA*dT*kT*kA*dA[ms]kA) [Compound No. 1785602] shows APOE RNA (% UTC) 20,000 nM of 6 % UTC or more.
Result: not met

----------
Tested on: human APOE RNA
Assay: Dose-dependent inhibition of human APOE RNA in differentiated SH-SY5Y cells, free uptake, 5 days (Example 5)
Type: cell-based
Conditions: 13 nM, 5 days (Table 14)
Strand notation (5' to 3'): a small letter for the sugar, then the base; units joined by * are phosphorothioate-linked, units joined directly phosphodiester-linked; [ ] holds rarer units or linkages, { } end groups; capitals alone tell only the bases. [ms] = mesyl phosphoramidate linkage; e = 2'-O-(2-methoxyethyl) (MOE); k = constrained ethyl (cEt); [5mC] = 5-methylcytosine; d = 2'-deoxy (DNA)
Here the recorded APOE RNA (% UTC) is given for each entry.
Give your result in % UTC as a bare value.

Task: Item under review: ^mCksTksTksGdzGdzTdzGdzAdzAdzTds^mCdsTdsTdsTdsAdsTdsTksAksAdzAk (antisense k[5mC]*kT*kT*dG[ms]dG[ms]dT[ms]dG[ms]dA[ms]dA[ms]dT*d[5mC]*dT*dT*dT*dA*dT*kT*kA*dA[ms]kA) [Compound No. 1785602] . Reported APOE RNA (% UTC)?
Result: 106

Task: # input substance: 1785598: modified oligonucleotide complementary to human APOE RNA (k[5mC]*kT*kT*dG[ms]dG[ms]dT[ms]dG[ms]dA[ms]dA[ms]dT*d[5mC]*dT*dT*dT*dA*dT[ms]kT*kA*dA[ms]kA; antisense) [compound 1785598] ; wanted: its APOE RNA (% UTC)
Result: 59

Task: Looking for the measured APOE RNA (% UTC) of 1778128: modified oligonucleotide complementary to human APOE RNA (eA*e[5mC]eTeTkGkG*dT*dG[ms]dA[ms]dA*dT*d[5mC]*dT*dT*dT*dA[ms]kTeT*eA*eA; antisense) [compound 1778128] , can you help?
Result: 51

Task: May I ask what APOE RNA (% UTC) has been recorded for 1785617: modified oligonucleotide complementary to human APOE RNA (k[5mC]*dT[ms]dT[ms]kG*dG[ms]kT*dG[ms]dA[ms]dA[ms]dT[ms]d[5mC]*dT*dT*dT*dA*dT*kT*kA*dA[ms]kA; antisense) [compound 1785617] ?
Result: 116

Task: So what's the measured APOE RNA (% UTC) for this one? Aes^mCeoTeoTesGesGksTdsGdzAdzAdzTds^mCdsTdsTdsTdsAdzTksTksAesAe (eA*e[5mC]eTeT*eG*kG*dT*dG[ms]dA[ms]dA[ms]dT*d[5mC]*dT*dT*dT*dA[ms]kT*kT*eA*eA) [Compound No. 1757576]
Result: 51

Task: // query APOE RNA (% UTC) value for entry 1785599: modified oligonucleotide complementary to human APOE RNA (k[5mC]*kT*kT*dG[ms]dG[ms]dT[ms]dG[ms]dA[ms]dA[ms]dT[ms]d[5mC]*dT*dT*dT*dA*dT*kT*kA*dA[ms]kA; antisense) [compound 1785599]
Result: 61

----------
Tested on: human APOE RNA
Assay: Dose-dependent inhibition of human APOE RNA in differentiated SH-SY5Y cells, free uptake, 5 days (Example 5)
Format: cell-based
Details: 20,000 nM, 5 days (Table 14)
Strand notation (5' to 3'): a small letter for the sugar, then the base; units joined by * are phosphorothioate-linked, units joined directly phosphodiester-linked; [ ] holds rarer units or linkages, { } end groups; capitals alone tell only the bases. [ms] = mesyl phosphoramidate linkage; e = 2'-O-(2-methoxyethyl) (MOE); k = constrained ethyl (cEt); [5mC] = 5-methylcytosine; d = 2'-deoxy (DNA)
Assay Readout: APOE RNA (% UTC)
The response must be a number in % UTC with no trailing unit.

Example entries and their recorded answers appear below.
{"Substance": "1746784 (k[5mC]*kT*kT*dG[ms]dG[ms]dT[ms]dG[ms]dA[ms]dA[ms]dT*d[5mC]*dT*dT*dT*dA[ms]dT*kT*kA*dA[ms]kA; antisense) [Compound 1746784]", "Tested On": "human APOE RNA", "Assay Readout": "APOE RNA (% UTC)", "Reported Result": 6}
{"Substance": "1746809 (k[5mC]*dT[ms]kT*dG[ms]kG*dT[ms]dG[ms]dA[ms]dA[ms]dT*d[5mC]*dT*dT*dT*dA[ms]dT*dT[ms]kA*kA*kA; antisense) [Compound 1746809]", "Tested On": "human APOE RNA", "Assay Readout": "APOE RNA (% UTC)", "Reported Result": 8}

# input for lookup
Task: # lookup: APOE RNA (% UTC) of 1757575 (eA*e[5mC]eTeT*kG*kG*dT*dG[ms]dA[ms]dA[ms]dT*d[5mC]*dT*dT*dT*dA[ms]kT*eT*eA*eA; antisense) [Compound 1757575]
Result: 11

----------
System: human APOE RNA
Assay: Dose-dependent inhibition of human APOE RNA in HepG2 cells, electroporation, 50,000 cells per well, RT-PCR normalized to GAPDH (Example 4, Tables 8-10)
Type: cell-based
Details: 512 nM; HepG2, electroporation, 16-hour treatment
Strand notation (5' to 3'): a small letter for the sugar, then the base; units joined by * are phosphorothioate-linked, units joined directly phosphodiester-linked; [ ] holds rarer units or linkages, { } end groups; capitals alone tell only the bases. e = 2'-O-(2-methoxyethyl) (MOE); k = constrained ethyl (cEt); [5mC] = 5-methylcytosine; d = 2'-deoxy (DNA)
Measured APOE RNA (% UTC) values are reported for all entries that follow.
Could you give me the number in % UTC? Just the number is fine.

// solved cases for APOE RNA (% UTC) follow
{"Substance": "1757582 (eT*eTeGkGkT*dG*dA*dA*dT*d[5mC]*dT*dT*dT*dA*dT*eTeAeA*eA*e[5mC]; antisense) [Compound 1757582]", "Assay Readout": "APOE RNA (% UTC)", "Units Text": "% UTC", "Reported Result": 64}
{"Substance": "1757551: mixed MOE/cEt gapmer TTGGTGAATCTTTATTAA, sugar eeekkddddddddeeeee, linkages soossssssssssooss (eT*eTeGkG*kT*dG*dA*dA*dT*d[5mC]*dT*dT*dT*eAeTeT*eA*eA) [compound 1757551]", "Assay Readout": "APOE RNA (% UTC)", "Units Text": "% UTC", "Reported Result": 41}

// below: APOE RNA (% UTC) requested for another substance
Task: Using the record for 1757569 (eA*e[5mC]eTkTkG*dG*dT*dG*dA*dA*dT*d[5mC]*dT*dT*dT*kAeTeT*eA*eA; antisense) [Compound 1757569] , report its APOE RNA (% UTC).
Result: 38

Data origin, for the record: patent US20250353873A1
